target: UniProt:P49146; experiment: Neuropeptide Y2 pKB assay (FLIPR, KAN-Ts cells stably expressing chimeric G proteins); format: cell-based; conditions: apparent pKB, modified Cheng-Prusoff correction
Sequence (P49146 whole entry): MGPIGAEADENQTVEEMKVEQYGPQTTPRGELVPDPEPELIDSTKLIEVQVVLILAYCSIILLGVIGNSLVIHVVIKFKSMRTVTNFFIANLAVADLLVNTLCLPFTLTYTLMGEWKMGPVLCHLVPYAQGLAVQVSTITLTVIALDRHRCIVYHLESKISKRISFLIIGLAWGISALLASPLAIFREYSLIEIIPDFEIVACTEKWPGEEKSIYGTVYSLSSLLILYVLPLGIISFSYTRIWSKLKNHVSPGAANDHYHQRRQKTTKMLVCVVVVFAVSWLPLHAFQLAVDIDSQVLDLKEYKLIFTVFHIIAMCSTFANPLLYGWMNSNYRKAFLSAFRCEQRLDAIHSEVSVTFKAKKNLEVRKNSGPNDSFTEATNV
Please enter Condition met where Kb is greater than or equal to 80 nM, and Condition not met where it is lower.

Worked examples follow.
INSERT INTO assay_data (compound, label) VALUES
  ('CCC(CC)C(=O)Nc1ccc(N2CCN(C(c3ccccc3)c3ccccc3C)CC2)c(C#N)c1 (stereo not shown) [Compound 305]', 'Condition met'),
  ('CC(CC(F)(F)F)C(=O)Nc1ccc(N2CCN(C(c3ccccc3)c3ncco3)CC2)c(C#N)c1 (stereo not shown) [Compound 110]', 'Condition met'),
  ('CCC(CC)C(=O)Nc1ccc(N2CCN(C(c3ccccc3)c3nccs3)CC2)c(F)c1 (stereo not shown) [Compound 39]', 'Condition not met'),
  ('CC[C@@H](C)C(=O)Nc1ccc(N2CCN(C(c3ccccc3)c3ncco3)CC2)c(F)c1 (stereo in doubt) [Compound 91]', 'Condition met'),
  ('CCC(CC)C(=O)Nc1ccc(N2CCN(C(c3ccccc3)c3nnc(C(C)C)o3)CC2)c(F)c1 (stereo not shown) [Compound 160]', 'Condition met');

Now let's try a different one.
**Q:** Determine whether this compound has Kb no lower than 80 nM: CCC(CC)C(=O)Nc1ccc(N2CCN(C(c3cccc(F)c3)c3ncco3)CC2)c(F)c1 (stereo not shown) [Compound 132]
**A:** Condition not met

Ref: patent US20120129870A1
